- assay text: HPLC stability analysis: hydrolysis of the prodrug to Cordycepin in phosphate buffer
- Assay type: physicochemical
- condition set: 0.63 mM in 30 mM phosphate buffer (pH 7.3) containing 5% DMSO, 37 C; read-out: t½ (time point at which half of the Cordycepin prodrug was hydrolysed to Cordycepin) (converted)
property: half-life at 0.63 mM (h)

INSERT INTO measurements (compound, observed_value) VALUES
  ('OC[C@@H]1C[C@@H](O)[C@H](n2cnc3c(NCSc4ccccc4)ncnc32)O1 [3b, 6-N-(phenylthiol)methyl-Cordycepin]', 15),
  ('COc1ccc(SCNc2ncnc3c2ncn3[C@@H]2O[C@H](CO)C[C@H]2O)cc1', 17);
